assayed-system: AII receptors (guinea pig adrenal gland cell surface membrane fraction) (Cavia porcellus, UniProt Q9WV26)
Sequence (Q9WV26 1-359): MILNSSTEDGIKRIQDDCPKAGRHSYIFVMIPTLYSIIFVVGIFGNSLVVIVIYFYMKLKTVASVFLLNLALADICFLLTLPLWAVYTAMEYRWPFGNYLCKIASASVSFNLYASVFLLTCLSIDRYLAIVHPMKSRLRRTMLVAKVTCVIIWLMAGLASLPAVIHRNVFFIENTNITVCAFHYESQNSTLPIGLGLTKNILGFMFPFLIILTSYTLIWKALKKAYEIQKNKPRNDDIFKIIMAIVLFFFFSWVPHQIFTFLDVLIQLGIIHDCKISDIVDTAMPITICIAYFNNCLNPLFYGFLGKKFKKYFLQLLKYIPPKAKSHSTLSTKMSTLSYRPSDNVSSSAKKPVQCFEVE
metric: IC50 (nM)
API: value field is a number in nM; no unit string.

Task: Quick one: IC50 for CCc1cc(OCc2ccc(-c3ccccc3-c3nnn[nH]3)cc2)c(-c2ccncc2)c(C)n1.Cl.Cl [Example 3, dihydrochloride] ?
Result: 5.5
